The measurements presented in this section are drawn from the NIST ThermoML archive (doi:10.1016/j.fluid.2013.11.028).

Each entry below carries its recorded mass density.
- protocol: wn = mass fraction of the nth substance listed
- assay.conditions: 323.15 K; 101 kPa; Liquid; Vibrating tube method; w1 = 0.2
± gives the expanded uncertainty stated by the source.
Dear colleague, please send the value followed by its unit.

In the examples that follow, each entry is paired with its recorded mass density.
>>> result("NCCNCCN [di(2-aminoethyl)amine] + O")
"993.9 ± 1 kg/m3"
>>> result("CN(C)CCCN(C)C [N,N,N',N'-tetramethyl-1,3-propanediamine] + O")
"961 ± 1 kg/m3"
>>> result("CN(C)CCN(C)C [N,N,N',N'-tetramethyl-1,2-diaminoethane] + O")
"961.4 ± 1 kg/m3"

# next compound below
Return value of mass density for input CNCCCN [N-methyl-1,3-diaminopropane] + O , no commentary.
973.7 ± 1 kg/m3

###

- protocol: wn = mass fraction of the nth substance listed
- assay.conditions: 308.15 K; 101 kPa; Liquid; Vibrating tube method; w1 = 0.1
# mass density annotations
Give the number; kg/m3 is assumed, so skip it.

Worked examples follow.
>>> number("NCCNCCN [di(2-aminoethyl)amine] + O")
996.7
>>> number("CN(C)CCN(C)C [N,N,N',N'-tetramethyl-1,2-diaminoethane] + O")
981
>>> number("CN(C)CCCN(C)C [N,N,N',N'-tetramethyl-1,3-propanediamine] + O")
981.4

Lab note: next molecule to report on.
Report mass density for CNCCCN [N-methyl-1,3-diaminopropane] + O
986.7

###

Form field: binary diffusion coefficient (one value per entry).
- protocol: wn = mass fraction of the nth substance listed
- assay.conditions: 318.15 K; 101 kPa; Liquid; Taylor dispersion method; w1 = 0.1
The figure you give is taken to be in m2/s; do not add the unit.

>>> number("CNCCCN [N-methyl-1,3-diaminopropane] + O")
"1.05e-09"
>>> number("CN(C)CCN(C)C [N,N,N',N'-tetramethyl-1,2-diaminoethane] + O")
"8.01e-10"

Determine its reported binary diffusion coefficient: CN(C)CCCN(C)C [N,N,N',N'-tetramethyl-1,3-propanediamine] + O
6.82e-10

State its binary diffusion coefficient for this compound: NCCNCCN [di(2-aminoethyl)amine] + O
1.01e-09

###

- protocol: wn = mass fraction of the nth substance listed
- assay.conditions: 323.15 K; 101 kPa; Liquid; Falling or rolling sphere viscometry; w1 = 0.3
value.kind: viscosity (mPa·s)
Please respond with the number in mPa·s and leave the unit unwritten.

// Input: NCCNCCN [di(2-aminoethyl)amine] + O . Output its viscosity only.
1.95

Note viscosity for the compound shown: CN(C)CCN(C)C [N,N,N',N'-tetramethyl-1,2-diaminoethane] + O
1.96

Please give the documented viscosity of CN(C)CCCN(C)C [N,N,N',N'-tetramethyl-1,3-propanediamine] + O
1.945

Read off the recorded viscosity for CNCCCN [N-methyl-1,3-diaminopropane] + O
1.769

###

- protocol: wn = mass fraction of the nth substance listed
- assay.conditions: 318.15 K; 101 kPa; Liquid; Vibrating tube method; w1 = 0.4
value.kind: mass density (kg/m3)
Number only, in kg/m3; omit the unit.

>>> number("CN(C)CCN(C)C [N,N,N',N'-tetramethyl-1,2-diaminoethane] + O")
935.3
>>> number("NCCNCCN [di(2-aminoethyl)amine] + O")
1006.7
>>> number("CN(C)CCCN(C)C [N,N,N',N'-tetramethyl-1,3-propanediamine] + O")
932.5

Proceeding to the next compound to report its mass density.
For the compound CNCCCN [N-methyl-1,3-diaminopropane] + O , give its measured mass density value.
964.6
